Each item that follows carries a reported IC50.
biological target: human histone deacetylase; construct: The human histone deacetylase was partially purified from human T cell leukemia Jurkat cells; experiment: Test 1: Determination of Histone Deacetylase Inhibitor Activity; details: enzyme partially purified from human T cell leukemia Jurkat cells; [3H] acetyl-labeled histones; 25° C., 30 minutes; read-out: Test 1: HDAC inhibitory activity IC50
Where a name gives a salt, the structure may show the parent alone.
reportedEndpoint: IC50

> print(dat)
                                   compound               testedsystem  reportedendpoint   result
1  O=C(/C=C/c1cnc(N[C@@H]2CCCN(Cc3ccccc3)C2)cn1)NO [Example 76, dihydrochloride]  human histone deacetylase              IC50  < 10 nM
2  CC1=C(CN2CC[C@@H](Nc3ccc(/C=C/C(=O)NO)cn3)C2)C(C)(C)CCC1 [Example 189, dihydrochloride]  human histone deacetylase              IC50  < 10 nM
3  O=C(/C=C/c1cnc(N[C@@H]2CCN(C(=O)C3CCCCC3)C2)c(Cl)c1)NO [Example 174, hydrochloride]  human histone deacetylase              IC50  < 10 nM
